- System: 292921-168-R-J2-PDC KRAS tumor spheroid viability
- ASSAY OVERVIEW: Anticancer human tumor 292921-168-R-J2-PDC patient-derived pancreatic carcinoma cell line growth inhibition [KRAS2]
- PARTICULARS: second compound 0.1 µM; first compound 0.316 µM; stronger effect = lower value; spheroids with HUVEC and MSC
Overview of reported viability, T/C across a group of molecules:
Write the value in % as a bare number.

The examples below pair each entry with its known result.
Supply reported viability, T/C belonging to this molecule: CC1COCCN1c1cc(-c2ccnn2C)c2ccnc(-c3ccn[nH]3)c2n1 (stereo not given) + C=CC(=O)N1CCN(c2nc(OCC3CCCN3C)nc3c2CCN(c2cccc4cccc(C)c24)C3)CC1CC#N
9.07

Supply reported viability, T/C belonging to this molecule: CC1(C)CCC(CN2CCN(c3ccc(C(=O)NS(=O)(=O)c4ccc(NCC5CCOCC5)c([N+](=O)[O-])c4)c(Oc4cnc5[nH]ccc5c4)c3)CC2)=C(c2ccc(Cl)cc2)C1 + C=CC(=O)N1CCN(c2nc(=O)n(-c3c(C)ccnc3C(C)C)c3nc(-c4c(O)cccc4F)c(F)cc23)C(C)C1
106

Supply reported viability, T/C belonging to this molecule: CC1OCC2(CCN(c3cnc(Sc4ccnc(N)c4Cl)c(N)n3)CC2)C1N (stereo not given) + C=CC(=O)N1CCN(c2nc(=O)n(-c3c(C)ccnc3C(C)C)c3nc(-c4c(O)cccc4F)c(F)cc23)C(C)C1
64.5

Supply reported viability, T/C belonging to this molecule: CC1OCC2(CCN(c3cnc(Sc4ccnc(N)c4Cl)c(N)n3)CC2)C1N (stereo not given) + C=CC(=O)N1CCN(c2nc(OCC3CCCN3C)nc3c2CCN(c2cccc4cccc(C)c24)C3)CC1CC#N
43.8

Now look at this entry.
Supply reported viability, T/C belonging to this molecule: COC(=O)c1ccc2c(C(=Nc3ccc(N(C)C(=O)CN4CCN(C)CC4)cc3)c3ccccc3)c(O)[nH]c2c1 + C=CC(=O)N1CCN(c2nc(=O)n(-c3c(C)ccnc3C(C)C)c3nc(-c4c(O)cccc4F)c(F)cc23)C(C)C1
30.9

###

- Tested on: 292921-168-R-J2-PDC KRAS tumor spheroid viability
- ASSAY OVERVIEW: Anticancer human tumor 292921-168-R-J2-PDC cell line growth inhibition [KRAS2];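 also: drug exposure lasted seven days after spheroids formed for three days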;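 as to viability, T/C: percent of DMSO vehicle control viability which is 100%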
- PARTICULARS: second compound 10 µM; first compound 0.316 µM; stronger effect = lower value; spheroids with HUVEC and MSC
READOUT TYPE: viability, T/C

Supply reported viability, T/C belonging to this compound: CC(C)NCC(C(=O)N1CCN(c2ncnc3c2C(C)CC3O)CC1)c1ccc(Cl)cc1 (stereo unspecified) + C=CC(=O)N1CCN(c2nc(=O)n(-c3c(C)ccnc3C(C)C)c3nc(-c4c(O)cccc4F)c(F)cc23)C(C)C1
17.8%

Supply reported viability, T/C belonging to this compound: Cn1nccc1Nc1nccc(-c2cc3c(s2)C(C)(C)N(CCN2CCOCC2)C3=O)n1 + CNCc1ccccc1-c1csc(C(C)Nc2nc(C)nc3cc(OC)c(OC)cc23)c1
0.1%

Supply reported viability, T/C belonging to this compound: COc1cc2nccc(Oc3ccc(NC(=O)C4(C(=O)Nc5ccc(F)cc5)CC4)cc3)c2cc1OC + COc1cc2nc(C)nc(NC(C)c3cc(N)cc(C(F)(F)F)c3)c2cc1OC1CCOC1
36.6%

Supply reported viability, T/C belonging to this compound: CC1OCC2(CCN(c3cnc(Sc4ccnc(N)c4Cl)c(N)n3)CC2)C1N (stereo unspecified) + CNCc1ccccc1-c1csc(C(C)Nc2nc(C)nc3cc(OC)c(OC)cc23)c1
0.08%

Supply reported viability, T/C belonging to this compound: COc1cc2nccc(Oc3ccc(NC(=O)C4(C(=O)Nc5ccc(F)cc5)CC4)cc3)c2cc1OC + CNCc1ccccc1-c1csc(C(C)Nc2nc(C)nc3cc(OC)c(OC)cc23)c1
0.21%

New cases:
Supply reported viability, T/C belonging to this compound: O=C(c1cc(Cc2n[nH]c(=O)c3ccccc23)ccc1F)N1CCN(C(=O)C2CC2)CC1 + CNCc1ccccc1-c1csc(C(C)Nc2nc(C)nc3cc(OC)c(OC)cc23)c1
0.1%

Supply reported viability, T/C belonging to this compound: CC1COCCN1c1cc(-c2ccnn2C)c2ccnc(-c3ccn[nH]3)c2n1 (stereo unspecified) + C=CC(=O)N1CCN(c2nc(=O)n(-c3c(C)ccnc3C(C)C)c3nc(-c4c(O)cccc4F)c(F)cc23)C(C)C1
19.1%

###

- Tested on: 292921-168-R-J2-PDC KRAS tumor spheroid viability
- ASSAY OVERVIEW: Anticancer human tumor 292921-168-R-J2-PDC cell line growth inhibition [KRAS2];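 also: drug exposure lasted seven days after spheroids formed for three days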;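 as to viability, T/C: percent of DMSO vehicle control viability which is 100%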
- PARTICULARS: second compound 1 µM; first compound 0.1 µM; stronger effect = lower value; spheroids with HUVEC and MSC
Overview of reported viability, T/C across a group of compounds:

Report viability, T/C on 292921-168-R-J2-PDC KRAS tumor spheroid viability for this entry: CC1(C)CCC(CN2CCN(c3ccc(C(=O)NS(=O)(=O)c4ccc(NCC5CCOCC5)c([N+](=O)[O-])c4)c(Oc4cnc5[nH]ccc5c4)c3)CC2)=C(c2ccc(Cl)cc2)C1 + CC1OCC2(CCN(c3cnc(Sc4ccnc(N)c4Cl)c(N)n3)CC2)C1N
51.4%

Report viability, T/C on 292921-168-R-J2-PDC KRAS tumor spheroid viability for this entry: CC(=O)OC12COC1CC(O)C1(C)C(=O)C(O)C3=C(C)C(OC(=O)C(O)C(NC(=O)OC(C)(C)C)c4ccccc4)CC(O)(C(OC(=O)c4ccccc4)C21)C3(C)C (stereo not drawn) + C=CC(=O)N1CCN(c2nc(OCC3CCCN3C)nc3c2CCN(c2cccc4cccc(C)c24)C3)CC1CC#N
6.48%

Report viability, T/C on 292921-168-R-J2-PDC KRAS tumor spheroid viability for this entry: CC(C)n1nc(-c2ccc3oc(N)nc3c2)c2c(N)ncnc21 + CNCc1ccccc1-c1csc(C(C)Nc2nc(C)nc3cc(OC)c(OC)cc23)c1
19%

###

- Tested on: 292921-168-R-J2-PDC KRAS tumor spheroid viability
- ASSAY OVERVIEW: Anticancer human tumor 292921-168-R-J2-PDC cell line growth inhibition [KRAS2];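 also: drug exposure lasted seven days after spheroids formed for three days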
- PARTICULARS: curve of first compound; second compound 1 µM; spheroids with HUVEC and MSC
READOUT TYPE: IC50

The examples below pair each entry with its known result.
Supply reported IC50 belonging to this compound: CC(=O)OC12COC1CC(O)C1(C)C(=O)C(O)C3=C(C)C(OC(=O)C(O)C(NC(=O)OC(C)(C)C)c4ccccc4)CC(O)(C(OC(=O)c4ccccc4)C21)C3(C)C (stereo not drawn) + CC1OCC2(CCN(c3cnc(Sc4ccnc(N)c4Cl)c(N)n3)CC2)C1N
< 10 nM

Supply reported IC50 belonging to this compound: COC(=O)c1ccc2c(C(=Nc3ccc(N(C)C(=O)CN4CCN(C)CC4)cc3)c3ccccc3)c(O)[nH]c2c1 + C=CC(=O)N1CCN(c2nc(=O)n(-c3c(C)ccnc3C(C)C)c3nc(-c4c(O)cccc4F)c(F)cc23)C(C)C1
58.8 nM

New cases:
Supply reported IC50 belonging to this compound: CC(C)NCC(C(=O)N1CCN(c2ncnc3c2C(C)CC3O)CC1)c1ccc(Cl)cc1 (stereo not drawn) + CC1OCC2(CCN(c3cnc(Sc4ccnc(N)c4Cl)c(N)n3)CC2)C1N
< 31.6 nM

###

- Test system: 292921-168-R-J2-PDC KRAS tumor spheroid viability
- ASSAY OVERVIEW: Anticancer human tumor 292921-168-R-J2-PDC cell line growth inhibition [KRAS2]; active = viability on the fitted dose curve at most 10% of control; inactive = the rest;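 also: drug exposure lasted seven days after spheroids formed for three days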
- PARTICULARS: second compound 3.16 µM; first compound 0.1 µM; spheroids with HUVEC and MSC
// one of Yes (active), No (inactive), no free text

Use the examples below as a reference point.
Could you check what this test reported for O=C(c1cc(Cc2n[nH]c(=O)c3ccccc23)ccc1F)N1CCN(C(=O)C2CC2)CC1 + COc1cc2nc(C)nc(NC(C)c3cc(N)cc(C(F)(F)F)c3)c2cc1OC1CCOC1 ?
No

Could you check what this test reported for CC(C)NCC(C(=O)N1CCN(c2ncnc3c2C(C)CC3O)CC1)c1ccc(Cl)cc1 (stereo not given) + C=CC(=O)N1CCN(c2nc(OCC3CCCN3C)nc3c2CCN(c2cccc4cccc(C)c24)C3)CC1CC#N ?
Yes

Could you check what this test reported for CC1COCCN1c1cc(-c2ccnn2C)c2ccnc(-c3ccn[nH]3)c2n1 (stereo not given) + C=CC(=O)N1CCN(c2nc(=O)n(-c3c(C)ccnc3C(C)C)c3nc(-c4c(O)cccc4F)c(F)cc23)C(C)C1 ?
No

Could you check what this test reported for COc1cc(Nc2ncc3c(n2)-c2ccc(Cl)cc2C(c2c(F)cccc2OC)=NC3)ccc1C(=O)O + COc1cc2nc(C)nc(NC(C)c3cc(N)cc(C(F)(F)F)c3)c2cc1OC1CCOC1 ?
No

New cases:
Could you check what this test reported for CCNC(=O)CC1N=C(c2ccc(Cl)cc2)c2cc(OC)ccc2-n2c(C)nnc21 (stereo not given) + C=CC(=O)N1CCN(c2nc(=O)n(-c3c(C)ccnc3C(C)C)c3nc(-c4c(O)cccc4F)c(F)cc23)C(C)C1 ?
No
